test-name: qHTS RealTime-Glo MT Cell Viability Assay in HepG2 cells - 16 hour (AID 1224885); further: nearly all actives have a fitted effect of over 50% in size
assay-setup: RealTime-Glo luminescence; series mostly up to 76.8 µM
Results filed as inconclusive are left out. Activity calls are given as the source filed them. The call rests on the fitted dose curve; in most records, active means well fitted cell-killing curve with a large enough effect in the repeat runs; inconclusive means weak or mixed curves; inactive means flat fitted curve, though single readings scatter.
metric: activity change, negative = cytotoxic

{"compound": "CCN(C)N=O", "value-measured": "inactive"}
{"compound": "CCCCNP(N)(N)=S", "value-measured": "inactive"}
{"compound": "CC1CC(CC2CCC(N)C(C)C2)CCC1N (stereo not drawn)", "value-measured": "inactive"}
{"compound": "CCBr", "value-measured": "inactive"}
{"compound": "O=Cc1ccc(Cl)cc1Cl", "value-measured": "inactive"}
{"compound": "NC(=O)C(Cl)(Cl)Cl", "value-measured": "inactive"}
{"compound": "CCCCCCCCOC(=O)c1ccc(C(=O)OCCCCCCCC)c(C(=O)OCCCCCCCC)c1", "value-measured": "inactive"}

*Q* Please list activity change, negative = cytotoxic recorded for the compound CCCCC(CC)COP(=O)(Oc1ccccc1)Oc1ccccc1 (stereo not drawn)
*A* inactive
